- System name: UniProt:P51531
- Sequence (P51531 whole entry): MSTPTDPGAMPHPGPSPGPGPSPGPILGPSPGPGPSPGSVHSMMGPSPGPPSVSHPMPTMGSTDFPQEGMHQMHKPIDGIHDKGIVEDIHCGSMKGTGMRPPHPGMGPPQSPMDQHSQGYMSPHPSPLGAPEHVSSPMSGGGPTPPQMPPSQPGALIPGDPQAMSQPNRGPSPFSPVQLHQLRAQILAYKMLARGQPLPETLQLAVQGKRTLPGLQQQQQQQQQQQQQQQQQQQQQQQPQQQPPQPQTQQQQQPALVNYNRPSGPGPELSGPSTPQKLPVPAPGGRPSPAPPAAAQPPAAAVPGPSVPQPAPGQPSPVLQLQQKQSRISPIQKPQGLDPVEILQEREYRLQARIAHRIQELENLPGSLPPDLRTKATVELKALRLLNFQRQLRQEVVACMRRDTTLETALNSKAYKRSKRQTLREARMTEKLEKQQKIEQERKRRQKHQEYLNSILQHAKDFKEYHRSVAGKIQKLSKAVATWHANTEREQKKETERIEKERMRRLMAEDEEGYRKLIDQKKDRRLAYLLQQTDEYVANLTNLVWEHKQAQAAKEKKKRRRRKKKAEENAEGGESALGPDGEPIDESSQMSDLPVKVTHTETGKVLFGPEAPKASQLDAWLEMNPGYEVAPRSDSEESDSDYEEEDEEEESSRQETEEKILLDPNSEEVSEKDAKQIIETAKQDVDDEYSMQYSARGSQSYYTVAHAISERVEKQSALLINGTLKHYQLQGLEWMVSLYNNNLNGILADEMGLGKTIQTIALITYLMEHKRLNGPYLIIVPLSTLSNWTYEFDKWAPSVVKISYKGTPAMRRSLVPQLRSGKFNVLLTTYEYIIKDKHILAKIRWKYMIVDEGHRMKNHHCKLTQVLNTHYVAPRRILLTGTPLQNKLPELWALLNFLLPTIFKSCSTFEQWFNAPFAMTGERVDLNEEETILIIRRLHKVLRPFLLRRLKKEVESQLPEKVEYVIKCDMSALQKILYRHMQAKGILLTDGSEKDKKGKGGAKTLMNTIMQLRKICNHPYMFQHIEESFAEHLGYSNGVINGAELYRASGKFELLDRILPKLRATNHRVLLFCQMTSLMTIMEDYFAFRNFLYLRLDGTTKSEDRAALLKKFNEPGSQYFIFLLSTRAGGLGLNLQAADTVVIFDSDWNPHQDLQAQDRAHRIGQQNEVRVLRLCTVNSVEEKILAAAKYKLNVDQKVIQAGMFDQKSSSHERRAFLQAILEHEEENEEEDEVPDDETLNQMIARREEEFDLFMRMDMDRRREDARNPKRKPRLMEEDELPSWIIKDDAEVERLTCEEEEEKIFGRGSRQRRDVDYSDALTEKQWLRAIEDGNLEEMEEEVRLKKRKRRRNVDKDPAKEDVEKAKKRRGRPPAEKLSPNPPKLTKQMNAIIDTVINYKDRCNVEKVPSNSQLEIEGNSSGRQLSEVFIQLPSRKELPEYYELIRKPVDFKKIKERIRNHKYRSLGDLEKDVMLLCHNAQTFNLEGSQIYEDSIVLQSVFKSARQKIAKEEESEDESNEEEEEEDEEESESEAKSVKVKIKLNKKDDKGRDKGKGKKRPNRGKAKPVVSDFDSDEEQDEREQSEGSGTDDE
- Method: MSD SMARCA2 degradation in A549 cell line
- Type: cell-based
- Settings: A549, A549 cells, 24 h
- Protocol: Cells were seeded into 96-well plates (A549 cells: 2×10^4 cells/well/100 ul media) abd incubated overnight. The next day, 200 nl compound were added into the intermediate plate with Echo (Labcyte 550) from source plate containing a 3-fold serial dilution from top concentration of 1 mM. […] The MSD plate was washed three times with 150 ul/well of TBST and 150 ul/well of 2×MSD reading buffer diluted from 4× (MSD, R92TC-2) with water was added. Lastly, the MSD instrument was read. […]
Known Dmax of a selection of molecules

# Molecule, Result
measured = [
    ("Cc1ncsc1-c1ccc(CNC(=O)[C@@H]2C[C@@H](O)CN2C(=O)[C@@H](NC(=O)c2ccc(-c3ccc(N4CCC(Cn5cc(-c6cc(-c7ccccc7O)nnc6N)cn5)CC4)cc3)cc2)C(C)(C)C)cc1", "< 50%"),
    ("Cc1ncsc1-c1ccc(CNC(=O)[C@@H]2C[C@@H](O)CN2C(=O)[C@@H](NC(=O)C2CCN(Cc3cnc(N4C5CCC4CN(c4cc(-c6ccccc6O)nnc4N)C5)nc3)CC2)C(C)(C)C)cc1", "> 90%"),
    ("Cc1ncsc1-c1ccc(CNC(=O)[C@@H]2C[C@@H](O)CN2C(=O)[C@@H](NC(=O)[C@H]2CC[C@H](CN3CCC(c4cnc(N5C6CCC5CN(c5cc(-c7ccccc7O)nnc5N)C6)nc4)CC3)CC2)C(C)(C)C)c(C(F)(F)F)c1", "50 to 70%"),
]

Please report the recorded Dmax for Cc1ncsc1-c1ccc(CNC(=O)[C@@H]2C[C@@H](O)CN2C(=O)[C@@H](NC(=O)C(=O)N2CCC(c3cnc(N4C5CCC4CN(c4cc(-c6ccccc6O)nnc4N)C5)nc3)CC2)C(C)(C)C)cc1 .
< 50%

Please report the recorded Dmax for Cc1ncsc1-c1ccc(CNC(=O)[C@@H]2C[C@@H](O)CN2C(=O)[C@@H](NC(=O)CCN(C)CC#Cc2cnc(N3C4CCC3CN(c3cc(-c5ccccc5O)nnc3N)C4)nc2)C(C)(C)C)cc1 .
70 to 90%

Please report the recorded Dmax for Cc1ncsc1-c1ccc(CNC(=O)[C@@H]2C[C@@H](O)CN2C(=O)[C@@H](NC(=O)CN2CCN([C@H]3CC[C@H](c4cnc(N5C6CCC5CN(c5cc(-c7ccccc7O)nnc5N)C6)nc4)CC3)CC2)C(C)(C)C)cc1 (single isomer, unassigned) .
> 90%
